// data source = patent US20220402985A1

- system-tested: ErbB4 on neonatal rat cardiomyocytes (rat) (UniProt Q62956)
- Sequence (Q62956 26-1308): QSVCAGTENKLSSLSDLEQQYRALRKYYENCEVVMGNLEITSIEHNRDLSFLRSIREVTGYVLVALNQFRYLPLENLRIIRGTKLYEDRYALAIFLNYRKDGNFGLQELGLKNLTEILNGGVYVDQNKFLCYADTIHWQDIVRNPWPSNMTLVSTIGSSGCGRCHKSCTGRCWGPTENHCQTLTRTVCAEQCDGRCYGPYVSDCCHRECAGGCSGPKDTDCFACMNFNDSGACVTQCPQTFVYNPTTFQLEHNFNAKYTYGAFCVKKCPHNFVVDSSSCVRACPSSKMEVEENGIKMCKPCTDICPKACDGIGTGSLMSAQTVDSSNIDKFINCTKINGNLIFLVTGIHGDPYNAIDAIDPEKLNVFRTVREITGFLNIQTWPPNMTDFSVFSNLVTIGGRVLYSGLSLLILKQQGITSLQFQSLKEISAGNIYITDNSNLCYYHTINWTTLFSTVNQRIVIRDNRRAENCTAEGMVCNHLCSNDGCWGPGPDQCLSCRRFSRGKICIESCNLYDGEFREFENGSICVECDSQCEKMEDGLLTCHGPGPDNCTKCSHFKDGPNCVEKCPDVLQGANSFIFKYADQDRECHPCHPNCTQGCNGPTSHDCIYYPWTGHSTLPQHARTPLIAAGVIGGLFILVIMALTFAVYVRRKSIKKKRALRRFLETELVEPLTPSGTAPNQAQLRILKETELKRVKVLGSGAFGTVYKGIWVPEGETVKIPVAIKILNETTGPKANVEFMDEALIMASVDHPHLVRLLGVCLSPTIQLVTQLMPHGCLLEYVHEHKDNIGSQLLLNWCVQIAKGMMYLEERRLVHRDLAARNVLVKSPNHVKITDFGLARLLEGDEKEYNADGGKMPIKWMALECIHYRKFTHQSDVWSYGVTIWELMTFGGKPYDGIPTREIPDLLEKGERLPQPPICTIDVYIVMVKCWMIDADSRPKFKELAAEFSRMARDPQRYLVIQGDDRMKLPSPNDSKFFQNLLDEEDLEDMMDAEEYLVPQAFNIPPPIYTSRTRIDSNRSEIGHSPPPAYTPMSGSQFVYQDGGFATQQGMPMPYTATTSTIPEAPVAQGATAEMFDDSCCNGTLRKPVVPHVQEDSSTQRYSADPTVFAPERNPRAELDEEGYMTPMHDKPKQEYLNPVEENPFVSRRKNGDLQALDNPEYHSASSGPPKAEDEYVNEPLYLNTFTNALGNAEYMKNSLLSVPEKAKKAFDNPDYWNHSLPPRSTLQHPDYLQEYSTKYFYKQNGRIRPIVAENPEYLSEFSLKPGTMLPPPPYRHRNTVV
- experimental-protocol: cell-based or functional assay
value-type: Selectivity SC/CM
Keep the answer to the number alone.

Which Selectivity SC/CM is listed for huNRG1(S177-Q237)(NRGE1M)::GG::huFcSEFL2 (Pb) (Fc fusion) SHLVKCGENDKSFCVNGGECFMIEGPSNPSRYLCKCPNEFTGDRCQDFFMASFYKAEELYQGGDKTHTCPPCPAPELLGGPSVFLFPPKPKDTLMISRTPEVTCVVVDVSHEDPEVKFNWYVDGVEVHNAKTKPCEEQYGSTYRCVSVLTVLHQDWLNGKEYKCKVSNKALPAPIEKTISKAKGQPREPQVYTLPPSREEMTKNQVSLTCLVKGFYPSDIAVEWESNGQPENNYKTTPPVLDSDGSFFLYSKLTVDKSRWQQGNVFSCSVMHEALHNHYTQKSLSLSPGK ?
39
